- protocol_description: Therapeutic index was determined
quantity_kind: TI
Lab note: jot down the number only; don't add units.

Below are worked cases with known answers.
compound: Cc1cc(=O)c2ccc3c(c2o1)[C@@H](OC(=O)C12CCC(C)(C(=O)O1)C2(C)C)[C@@H](OC(=O)C12CCC(C)(C(=O)O1)C2(C)C)C(C)(C)O3 (stereo partly drawn)
measurement: 8600
--
compound: CC1(C)Oc2ccc3c(=O)cc(-c4ccccc4)oc3c2[C@@H](OC(=O)C23CCC(C)(C(=O)O2)C3(C)C)[C@H]1OC(=O)C12CCC(C)(C(=O)O1)C2(C)C (stereo partly drawn)
measurement: 71

Shifting focus to the compound that follows.
GET /values?readout=TI&item= Cc1cc(=O)c2ccc3c(c2o1)[C@@H](OC(=O)C12CCC(C)(C(=O)O1)C2(C)C)[C@@H](OC(=O)C(C)C)C(C)(C)O3 (stereo partly drawn) 56.3

====

- protocol_description: Effective concentration against HIV-I RTMDR1 in MT-4 cells
- Assay type: functional, cell-based, human immunodeficiency virus type i
- conditions: mt4
Response field label takes true (1) when EC50 is strictly below 300 nM and false (0) in all other cases.

compound: Cc1cn([C@H]2C[C@H](N=[N+]=[N-])[C@@H](CO)O2)c(=O)[nH]c1=O
assigned_class: true (1)

compound: CCc1cc(=O)c2ccc3c(c2o1)[C@@H](OC(=O)C12CCC(C)(C(=O)O1)C2(C)C)[C@@H](OC(=O)C12CCC(C)(C(=O)O1)C2(C)C)C(C)(C)O3 (stereo partly specified)
assigned_class: true (1)

compound: Cc1cc(=O)oc2c3c(ccc12)OC(C)(C)[C@H](OC(=O)C12CCC(C)(C(=O)O1)C2(C)C)[C@@H]3OC(=O)C12CCC(C)(C(=O)O1)C2(C)C (stereo partly specified)
assigned_class: false (0)

Item CCCc1cc(=O)c2ccc3c(c2o1)[C@@H](OC(=O)C12CCC(C)(C(=O)O1)C2(C)C)[C@@H](OC(=O)C12CCC(C)(C(=O)O1)C2(C)C)C(C)(C)O3 (stereo partly specified) : EC50 beneath 300 nM, strictly? true (1)

State whether 300 nM exceeds EC50 recorded for CCc1cc(=O)c2ccc3c(c2o1)[C@@H](OC(=O)C12CCC(C)(C(=O)O1)C2(C)C)[C@@H](OC(=O)C(C)C)C(C)(C)O3 (stereo partly specified) . true (1)

====

Listing: pEC50 of selected compounds
- System: Human immunodeficiency virus 1
- protocol_description: Effective concentration against HIV IIIB replication in H9 lymphocytes
Scale: pEC50 equals -log10([C]), with [C] in mol/L.

Take a look at these entries with their results.
compound: CCOCc1cc(=O)c2ccc3c(c2o1)[C@@H](OC(=O)C12CCC(C)(C(=O)O1)C2(C)C)[C@@H](OC(=O)C12CCC(C)(C(=O)O1)C2(C)C)C(C)(C)O3 (stereo partly drawn)
pEC50: 7.00
--
compound: CC(=O)O[C@@H]1[C@H](OC(=O)C23CCC(C)(C(=O)O2)C3(C)C)c2c(ccc3c(=O)cc(-c4ccccc4)oc23)OC1(C)C (stereo partly drawn)
pEC50: 5.65
--
compound: CC(C)c1cc(=O)c2ccc3c(c2o1)[C@@H](OC(=O)C12CCC(C)(C(=O)O1)C2(C)C)[C@@H](OC(=O)C12CCC(C)(C(=O)O1)C2(C)C)C(C)(C)O3 (stereo partly drawn)
pEC50: 7.15
--
compound: CCc1cc(=O)c2ccc3c(c2o1)[C@@H](OC(=O)C12CCC(C)(C(=O)O1)C2(C)C)[C@@H](OC(=O)C(C)C)C(C)(C)O3 (stereo partly drawn)
pEC50: 6.60

Missing value: pEC50, Human immunodeficiency virus 1, entry CCOCc1cc(=O)c2ccc3c(c2o1)[C@@H](OC(=O)C12CCC(C)(C(=O)O1)C2(C)C)[C@@H](OC(=O)C(C)C)C(C)(C)O3 (stereo partly drawn) . Fill in? 6.21

Enter reported pEC50 observed with Human immunodeficiency virus 1 for Cc1cc(=O)oc2c3c(ccc12)OC(C)(C)[C@H](OC(=O)C12CCC(C)(C(=O)O1)C2(C)C)[C@@H]3OC(=O)C12CCC(C)(C(=O)O1)C2(C)C (stereo partly drawn) 8.23

Reported pEC50 for Human immunodeficiency virus 1, given CC1(C)Oc2ccc3c(=O)ccoc3c2[C@@H](OC(=O)C23CCC(C)(C(=O)O2)C3(C)C)[C@H]1OC(=O)C12CCC(C)(C(=O)O1)C2(C)C (stereo partly drawn) ? 8.89

// lookup pEC50 | system=Human immunodeficiency virus 1 | key= Cc1cc(=O)c2ccc3c(c2o1)[C@@H](OC(=O)C12CCC(C)(C(=O)O1)C2(C)C)[C@@H](OC(=O)C(C)C)C(C)(C)O3 (stereo partly drawn) 6.06

====

Each record here notes measured EC50.
- Tested on: Human immunodeficiency virus 1
- protocol_description: Effective concentration against HIV IIIB replication in H9 lymphocytes
Give a bare numeral; the unit nM is implied.

Consider the reported EC50 for these molecules:
molecule: CC1(C)Oc2ccc3c(=O)cc(-c4ccccc4)oc3c2[C@@H](OC(=O)C23CCC(C)(C(=O)O2)C3(C)C)[C@H]1OC(=O)C12CCC(C)(C(=O)O1)C2(C)C (stereo partly drawn)
assayed_system: Human immunodeficiency virus 1
EC50 / nM: 120

molecule: CC(C)C(=O)O[C@@H]1[C@H](OC(=O)C23CCC(C)(C(=O)O2)C3(C)C)c2c(ccc3c(=O)cc(-c4ccccc4)oc23)OC1(C)C (stereo partly drawn)
assayed_system: Human immunodeficiency virus 1
EC50 / nM: 1680

molecule: CC(=O)O[C@@H]1[C@H](OC(=O)C23CCC(C)(C(=O)O2)C3(C)C)c2c(ccc3c(=O)cc(C)oc23)OC1(C)C (stereo partly drawn)
assayed_system: Human immunodeficiency virus 1
EC50 / nM: 2290

// moving on: another record for EC50
Form field: reported EC50 of CC1(C)Oc2ccc3c(=O)c(-c4ccccc4)coc3c2[C@@H](OC(=O)C23CCC(C)(C(=O)O2)C3(C)C)[C@H]1OC(=O)C12CCC(C)(C(=O)O1)C2(C)C (stereo partly drawn) 1540

====

- protocol_description: Therapeutic index was determined
quantity_kind: TI
Form rule: numeric answer, no unit written next to it.

Solved cases (2 shown):
compound: CC(C)c1cc(=O)c2ccc3c(c2o1)[C@@H](OC(=O)C12CCC(C)(C(=O)O1)C2(C)C)[C@@H](OC(=O)C12CCC(C)(C(=O)O1)C2(C)C)C(C)(C)O3 (stereo partly drawn)
TI: 483

compound: CC(=O)O[C@@H]1[C@H](OC(=O)C23CCC(C)(C(=O)O2)C3(C)C)c2c(ccc3c(=O)cc(C)oc23)OC1(C)C (stereo partly drawn)
TI: 18.2

Moving on to the next compound.
Item CCOCc1cc(=O)c2ccc3c(c2o1)[C@@H](OC(=O)C12CCC(C)(C(=O)O1)C2(C)C)[C@@H](OC(=O)C12CCC(C)(C(=O)O1)C2(C)C)C(C)(C)O3 (stereo partly drawn) has what recorded TI? 151

====

Measured selectivity ratio, listed per entry for reference.
- protocol_description: Therapeutic index was determined
- conditions: read-out: TI
Write no unit; give the number alone.

Data request, read-out selectivity ratio, for CC1(C)Oc2ccc3c(=O)ccoc3c2[C@@H](OC(=O)C23CCC(C)(C(=O)O2)C3(C)C)[C@H]1OC(=O)C12CCC(C)(C(=O)O1)C2(C)C (stereo partly specified) 11100

Look at this compound and give its reported selectivity ratio. CC1(C)Oc2ccc3c(=O)c(-c4ccccc4)coc3c2[C@@H](OC(=O)C23CCC(C)(C(=O)O2)C3(C)C)[C@H]1OC(=O)C12CCC(C)(C(=O)O1)C2(C)C (stereo partly specified) 23.3

// lookup selectivity ratio for CC(=O)O[C@@H]1[C@H](OC(=O)C23CCC(C)(C(=O)O2)C3(C)C)c2c(ccc3c(=O)cc(C)oc23)OC1(C)C (stereo partly specified) 21.9

I would be grateful if you could share the reported selectivity ratio for Cc1cc(=O)c2ccc3c(c2o1)[C@@H](OC(=O)C12CCC(C)(C(=O)O1)C2(C)C)[C@@H](OC(=O)C12CCC(C)(C(=O)O1)C2(C)C)C(C)(C)O3 (stereo partly specified) . 62.5

====

- protocol_description: Therapeutic index was determined
- conditions: read-out: TI
quantity_kind: selectivity ratio
Format: numeric value only, no unit, no commentary.

compound: Cc1cc(=O)c2ccc3c(c2o1)[C@@H](OC(=O)C12CCC(C)(C(=O)O1)C2(C)C)[C@@H](OC(=O)C(C)C)C(C)(C)O3 (stereo partly drawn)
selectivity ratio: 46

Requested read-out: selectivity ratio. Entry: CC(C)C(=O)O[C@@H]1[C@H](OC(=O)C23CCC(C)(C(=O)O2)C3(C)C)c2c(ccc3c(=O)cc(-c4ccccc4)oc23)OC1(C)C (stereo partly drawn) 25.3

====

- protocol_description: Effective concentration against HIV-I RTMDR1 in MT-4 cells
- Format: functional, cell-based, human immunodeficiency virus type i
- conditions: mt4
quantity_kind: EC50 (nM)
All answers are understood in nM, so give the number only.

Worked cases, answers included:
molecule: CC(=O)O[C@@H]1[C@H](OC(=O)C23CCC(C)(C(=O)O2)C3(C)C)c2c(ccc3c(=O)cc(-c4ccccc4)oc23)OC1(C)C (some centres not stated)
EC50 / nM: 4460
//
molecule: CCOCc1cc(=O)c2ccc3c(c2o1)[C@@H](OC(=O)C12CCC(C)(C(=O)O1)C2(C)C)[C@@H](OC(=O)C12CCC(C)(C(=O)O1)C2(C)C)C(C)(C)O3 (some centres not stated)
EC50 / nM: 370
//
molecule: CCc1cc(=O)c2cc(C(C)(C)C)c3c(c2o1)[C@@H](OC(=O)C12CCC(C)(C(=O)O1)C2(C)C)[C@@H](OC(=O)C12CCC(C)(C(=O)O1)C2(C)C)C(C)(C)O3 (some centres not stated)
EC50 / nM: 7360
//
molecule: CC(=O)O[C@@H]1[C@H](OC(=O)C23CCC(C)(C(=O)O2)C3(C)C)c2c(ccc3c(=O)cc(C)oc23)OC1(C)C (some centres not stated)
EC50 / nM: 2200
//
molecule: Cc1cc(=O)c2ccc3c(c2o1)[C@@H](OC(=O)C12CCC(C)(C(=O)O1)C2(C)C)[C@@H](OC(=O)CC(C)C)C(C)(C)O3 (some centres not stated)
EC50 / nM: 590

Consider the molecule Cc1coc2c3c(ccc2c1=O)OC(C)(C)[C@H](OC(=O)C12CCC(C)(C(=O)O1)C2(C)C)[C@@H]3OC(=O)C12CCC(C)(C(=O)O1)C2(C)C (some centres not stated) and give its measured EC50. 1280

Quick check: EC50 of CC1(C)Oc2ccc3ccc(=O)oc3c2[C@@H](OC(=O)C23CCC(C)(C(=O)O2)C3(C)C)[C@H]1OC(=O)C12CCC(C)(C(=O)O1)C2(C)C (some centres not stated) ? 12100

For the molecule shown here, CC(C)c1cc(=O)c2ccc3c(c2o1)[C@@H](OC(=O)C12CCC(C)(C(=O)O1)C2(C)C)[C@@H](OC(=O)C12CCC(C)(C(=O)O1)C2(C)C)C(C)(C)O3 (some centres not stated) , give the reported EC50. 140

Recorded EC50 of Cc1cc(=O)c2ccc3c(c2o1)[C@@H](OC(=O)C12CCC(C)(C(=O)O1)C2(C)C)[C@@H](OC(=O)C12CCC(C)(C(=O)O1)C2(C)C)C(C)(C)O3 (some centres not stated) , please. 190

Quick one: EC50 for Cc1oc2c3c(ccc2c(=O)c1C)OC(C)(C)[C@H](OC(=O)C12CCC(C)(C(=O)O1)C2(C)C)[C@@H]3OC(=O)C12CCC(C)(C(=O)O1)C2(C)C (some centres not stated) ? 310

Suppose we examine the molecule CCOCc1cc(=O)c2ccc3c(c2o1)[C@@H](OC(=O)C12CCC(C)(C(=O)O1)C2(C)C)[C@@H](OC(=O)C(C)C)C(C)(C)O3 (some centres not stated) ; what EC50 value has been reported? 1090

Quick one: EC50 of CC1(C)Oc2ccc3c(=O)cc(-c4ccccc4)oc3c2[C@@H](OC(=O)C23CCC(C)(C(=O)O2)C3(C)C)[C@H]1OC(=O)C12CCC(C)(C(=O)O1)C2(C)C (some centres not stated) ? 170
